system: Homo sapiens; experiment: AUC (0 to infinity) in plasma of human with mild liver impairment assessed as isavuconazole level at 180.5 mg, iv administered as single dose over 2 hrs following overnight fasting by high-pressure liquid chromatography coupled with tandem mass spectrometry; type: ADME, organism-based; set-up: dose 180.5 mg, time infinity, route intravenous; conditions: in vivo
Reported Endpoint: AUC
Remember to quote the unit after the number.

Prompt line: Give AUC (Homo sapiens) of the following compound: CNCC(=O)OCc1cccnc1N(C)C(=O)OC(C)[n+]1cnn(C[C@](O)(c2cc(F)ccc2F)[C@@H](C)c2nc(-c3ccc(C#N)cc3)cs2)c1.Cl.[Cl-] (stereo partly specified)
Response line: 72 µg/h/mL

* * *

test system: Homo sapiens; assay: AUC (0 to infinity) in healthy human plasma assessed as isavuconazole level at 180.5 mg, iv administered as single dose over 2 hrs following overnight fasting by high-pressure liquid chromatography coupled with tandem mass spectrometry; format: ADME, organism-based; set-up: dose 180.5 mg, time infinity, route intravenous; settings: in vivo
Reported Endpoint: AUC (µg/h/mL)
Kindly answer with a numeric value in µg/h/mL, unit omitted.

Prompt line: Name the reported AUC value associated with the molecule CNCC(=O)OCc1cccnc1N(C)C(=O)OC(C)[n+]1cnn(C[C@](O)(c2cc(F)ccc2F)[C@@H](C)c2nc(-c3ccc(C#N)cc3)cs2)c1.Cl.[Cl-] (stereo partly specified)
Response line: 39

* * *

tested on: Homo sapiens; assay: AUC (0 to infinity) in plasma of human with moderate liver impairment assessed as isavuconazole level at 180.5 mg, iv administered as single dose over 2 hrs following overnight fasting by high-pressure liquid chromatography coupled with tandem mass spectrometry; type: ADME, organism-based; parameters: dose 180.5 mg, route intravenous, time infinity; settings: in vivo
Reported Endpoint: AUC (µg/h/mL)
Unit µg/h/mL implied. Number only.

Prompt line: State the recorded AUC for this entry: CNCC(=O)OCc1cccnc1N(C)C(=O)OC(C)[n+]1cnn(C[C@](O)(c2cc(F)ccc2F)[C@@H](C)c2nc(-c3ccc(C#N)cc3)cs2)c1.Cl.[Cl-] (stereo partly specified)
Response line: 101

* * *

system: Homo sapiens; assay: AUC (0 to infinity) in plasma of human with moderate liver impairment assessed as isavuconazole level at 180.5 mg, po administered as single dose over 2 hrs following overnight fasting by high-pressure liquid chromatography coupled with tandem mass spectrometry; type: ADME, organism-based; parameters: dose 180.5 mg, route oral, time infinity; conditions: in vivo
Reported Endpoint: AUC (µg/h/mL)
Give just the numeric value; µg/h/mL need not be written.

Prompt line: Consider the compound CNCC(=O)OCc1cccnc1N(C)C(=O)OC(C)[n+]1cnn(C[C@](O)(c2cc(F)ccc2F)[C@@H](C)c2nc(-c3ccc(C#N)cc3)cs2)c1.Cl.[Cl-] (stereo partly specified) and give its measured AUC.
Response line: 62

* * *

test system: Homo sapiens; assay: AUC (0 to infinity) in plasma of human with mild liver impairment assessed as isavuconazole level at 180.5 mg, po administered as single dose over 2 hrs following overnight fasting by high-pressure liquid chromatography coupled with tandem mass spectrometry; format: ADME, organism-based; design: dose 180.5 mg, route oral, time infinity; details: in vivo
Reported Endpoint: AUC (µg/h/mL)
# unit: µg/h/mL | format: bare number

Prompt line: State the recorded AUC for this entry: CNCC(=O)OCc1cccnc1N(C)C(=O)OC(C)[n+]1cnn(C[C@](O)(c2cc(F)ccc2F)[C@@H](C)c2nc(-c3ccc(C#N)cc3)cs2)c1.Cl.[Cl-] (stereo partly specified)
Response line: 98
